All values here come from PubChem BioAssay (NCATS).

Target: Cytochrome P450 1A2 (Homo sapiens) (UniProt P05177)
Sequence (P05177 whole entry, looked up): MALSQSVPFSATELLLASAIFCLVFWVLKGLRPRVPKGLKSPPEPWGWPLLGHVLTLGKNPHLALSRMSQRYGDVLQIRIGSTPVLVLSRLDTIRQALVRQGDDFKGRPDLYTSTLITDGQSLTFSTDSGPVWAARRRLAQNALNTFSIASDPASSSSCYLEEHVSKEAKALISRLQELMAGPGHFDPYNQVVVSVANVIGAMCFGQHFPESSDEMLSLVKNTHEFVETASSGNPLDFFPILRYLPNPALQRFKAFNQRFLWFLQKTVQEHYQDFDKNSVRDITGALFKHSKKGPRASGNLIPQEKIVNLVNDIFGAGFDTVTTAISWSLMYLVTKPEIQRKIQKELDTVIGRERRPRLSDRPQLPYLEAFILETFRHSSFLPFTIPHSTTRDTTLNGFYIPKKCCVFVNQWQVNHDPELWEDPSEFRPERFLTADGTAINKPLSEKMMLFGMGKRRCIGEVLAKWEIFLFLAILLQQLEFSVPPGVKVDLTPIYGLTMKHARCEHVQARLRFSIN
Assay: p450-cyp1a2 (AID 410)
Conditions: recombinant CYP1A2, luciferin-ME demethylation, luminescence; series mostly up to 11.4 µM
Results filed as inconclusive are left out. Active and inactive are the calls of the source. The call rests on the fitted dose curve.
The categories you may choose from are active, inactive

Below, 2 compounds whose answers are already recorded.
record_smiles	assigned_label
Clc1ccc2c(NCCNc3ccnc4cc(Cl)ccc34)ccnc2c1	active
CCNc1ncc2nc(-c3ccccc3)c(=O)n(C3CC3)c2n1	active

Task item: # outcome recorded in this test, key = `Nc1nc(N)[n+]([O-])c(N)c1NCO`
Reply: inactive

Task item: Tell me the assay call for `CN(C)[C@H]1C(=O)C(C(=O)NCN2CCCC2)=C(O)[C@]2(O)C(=O)C3=C(O)c4c(O)cccc4[C@](C)(O)[C@H]3C[C@H]12` please.
Reply: inactive

Task item: Recorded test outcome, item `O=C(c1ccncc1)N1CCC2(CCCN(c3cccc(-c4ccccc4)c3)C2)CC1`
Reply: active

Task item: Could you please tell me the result logged for `CC(=O)[C@@H]1CC[C@@H]2[C@@H]3CC=C4C[C@H](OS(=O)(=O)O)CC[C@@]4(C)[C@H]3CC[C@]21C` in this assay?
Reply: inactive
